Each recorded value in this set is attributed to paper PMC9482650.

# Target system: T1, RADIL, Q96JH8
# T1 sequence (Q96JH8 971-1071, limits assumed, looked up): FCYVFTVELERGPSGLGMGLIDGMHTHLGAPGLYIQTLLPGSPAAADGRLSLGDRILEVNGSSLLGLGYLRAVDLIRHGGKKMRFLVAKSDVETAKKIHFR
# Assay notes: holdup assay
# Design: key: below the threshold = too weak to quantify, mostly under pKd 3.1 to 4
# Setup conditions: plain residues with an end cap or a label only (N-terminal biotin on a linker: ado-ado)
Property label: pKd

INSERT INTO measurements (binder, property_label, observed) VALUES
  ('KKMPSIESDV [GRIN2A, Q12879]', 'pKd', 'below the threshold'),
  ('FNSYSLTGYV [CLDN2, P57739]', 'pKd', 4.99),
  ('TPPAAKKSRI [BAZ1A, Q9NRL2]', 'pKd', 'below the threshold'),
  ('YLEPVLSSEL [ATP2A2, P16615;P16615-3]', 'pKd', 'below the threshold');
